- Tested on: PQ-treated Neuro-2a cells
- protocol.details: Propidium iodide straining of PQ-treated Neuro-2a cells (membrane permeability)
- Assay type: cell-based, mouse
- experimental.setup: compound 10 μM pre-incubation, PQ-treated cells, 24 h
experimental.endpoint: decrease of fluorescence of PI-straining cells (%)
Report only the number, with the unit % understood.

Examples with answers:
{"columns": ["compound", "observed.measurement"],
 "data": [
  ["CC(=O)O[C@H]1CC[C@@]2(C)[C@@H](C[C@@H]3O[C@]34[C@]23CC[C@]2(C)[C@@H]([C@H](C)CCC=C(C)C)CC[C@@]42C(=O)O3)C1(C)C [Compound 1]", 16],
  ["CC(C)=CCC[C@@H](C)[C@H]1CC[C@@]2(C(=O)O)C3=C(CC[C@]12C)[C@@]1(C)CCC(=O)C(C)(C)[C@@H]1CC3 [Compound 4, penasterone]", 17],
  ["CC(=O)O[C@H]1CC[C@]2(C)C3=C(CC[C@H]2C1(C)C)[C@]1(C(=O)O)CC[C@H]([C@H](C)CCC=C(C)C)[C@@]1(C)CC3 [Compound 5, acetylpenasterol]", 24]
]}

Let's switch to this compound now.
Query: Read off the recorded decrease of fluorescence of PI-straining cells for CC(C)=CCC[C@@H](C)[C@H]1CC[C@]23C(=O)O[C@]4(CC[C@]12C)[C@]31O[C@H]1C[C@H]1C(C)(C)[C@@H](O)CC[C@@]14C [Compound 2]
Response: 12
